Reference source: the supplement of paper PMC12042874

- TEST_DESCRIPTION: amyloid nucleation score (Sup35N fusion, yeast selection) (log enrichment); library NNK1; higher = more nucleation; inactive = no reads after selection;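 also: zero at mode of non-aggregating sequences after 7 days selection at 30°C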
Items are presented alongside their recorded amyloid nucleation score.

SUBSTANCE: DDRLLCI
amyloid nucleation score: -1.85
//
SUBSTANCE: RAMTVLLGGNFQMIIKTFEL
amyloid nucleation score: 3.09
//
SUBSTANCE: GLMNLVSDRMSWLNEV
amyloid nucleation score: 0.485
//
SUBSTANCE: RDWLLTLVLTLSQGPTTCAT
amyloid nucleation score: 0.247
//
SUBSTANCE: CMWWSCGSNIVYVALLMWCH
amyloid nucleation score: -0.191
//
SUBSTANCE: SVNLNFLFAL
amyloid nucleation score: 8.06
//
SUBSTANCE: MASHGDWGCSNRVFLFPHCR
amyloid nucleation score: -2.08
//
SUBSTANCE: YGLPFHVPACCAYLVVCKGR
amyloid nucleation score: -0.018
//
SUBSTANCE: FWVAIRVRVIWVNKKNDGCI
amyloid nucleation score: -0.147
//
SUBSTANCE: GSYFGKGSVK
amyloid nucleation score: 0.563
//
SUBSTANCE: AYAEIYERSEPGKDRHYLFM
amyloid nucleation score: -0.313
//
SUBSTANCE: AWDFWTWVSSGVWWYDASVR
amyloid nucleation score: -0.398
//
SUBSTANCE: QGSYLHLSIKWLAFRSMS
amyloid nucleation score: 0.19
//
SUBSTANCE: FNGGNTFVCVSLDTCWNGWY
amyloid nucleation score: 7.54
//
SUBSTANCE: FASWFFMCRDGGLIM
amyloid nucleation score: -0.573
//
SUBSTANCE: SDSRVVLPLLIPLSART
amyloid nucleation score: 0.865

====

- TEST_DESCRIPTION: amyloid nucleation score (Sup35N fusion, yeast selection) (log enrichment); library NNK1; higher = more nucleation; inactive = no reads after selection
Items are presented alongside their recorded amyloid nucleation score.

SUBSTANCE: ILICKLHRRVIRGWNFRSDR
amyloid nucleation score: 0.086
//
SUBSTANCE: VWLSMEFLCVYTCMPCWSQL
amyloid nucleation score: -0.423
//
SUBSTANCE: RAWQHNFGKIMRSPRVFVRW
amyloid nucleation score: -1.4
//
SUBSTANCE: RIGFPSQSGLLVVAVLTQSA
amyloid nucleation score: -0.379
//
SUBSTANCE: IAYGSINCGFNRL
amyloid nucleation score: 1.18
//
SUBSTANCE: LTGSISD
amyloid nucleation score: 1.17
//
SUBSTANCE: IGRRDWH
amyloid nucleation score: 0.925
//
SUBSTANCE: PVCHLSGFFFLYDSGCSD
amyloid nucleation score: 4.82
//
SUBSTANCE: SAHHLVIRFGMLYPREQHCL
amyloid nucleation score: 0.299
//
SUBSTANCE: VTFHLEARLAGLDLMGYSTS
amyloid nucleation score: 0.835
//
SUBSTANCE: HCIPLALICGGSSSPVVEYL
amyloid nucleation score: 0.686
//
SUBSTANCE: DAQFGRHVLGLFFSRQEMLV
amyloid nucleation score: -1.52
//
SUBSTANCE: TKTSTSFGRVKPVN
amyloid nucleation score: 0.793
//
SUBSTANCE: RLLCCFCTWTLQMFCYSGCC
amyloid nucleation score: 5.98
//
SUBSTANCE: LPVFELSHTHSVKSLDGNGQ
amyloid nucleation score: -0.308
//
SUBSTANCE: GVTYKPYGVSNW
amyloid nucleation score: -0.616
//
SUBSTANCE: TFTWGRMRSSSVDSCVKSWA
amyloid nucleation score: 1.2

====

- TEST_DESCRIPTION: amyloid nucleation score (Sup35N fusion, yeast selection) (log enrichment); library NNK1; higher = more nucleation; inactive = no reads after selection
Binary classification by amyloid nucleation score, with 0.4 as an inclusive lower bound for true (1); all other cases are false (0).

SUBSTANCE: LTNRSLIVRDWCTSTYPNPS
CLASS: false (0)
//
SUBSTANCE: NVKICDGAIIYMSSMASFEL
CLASS: true (1)
//
SUBSTANCE: WTAHSSL
CLASS: true (1)
//
SUBSTANCE: HAFFHYWPVCQWV
CLASS: true (1)
//
SUBSTANCE: SFSMFSEFSLLRCSAYRNPM
CLASS: true (1)
//
SUBSTANCE: MATSPFGERVPFIYLDHFCY
CLASS: false (0)
//
SUBSTANCE: EMGSSLYTRHGNVRSLAFGW
CLASS: false (0)
//
SUBSTANCE: VSRMGVGTIRTQVHGIRGGT
CLASS: false (0)
//
SUBSTANCE: TNYWPVIFG
CLASS: false (0)
//
SUBSTANCE: SYLFVKGLIYSLSRLCLEVN
CLASS: false (0)
//
SUBSTANCE: VHFDRCDLWPGMM
CLASS: false (0)
//
SUBSTANCE: CSNVGVCGMSIH
CLASS: true (1)
//
SUBSTANCE: HDPDPVDYGCGWVSVSCGVA
CLASS: true (1)
//
SUBSTANCE: CTSVRVLGSNQCSYGVSKCR
CLASS: false (0)
//
SUBSTANCE: LYYYEQH
CLASS: false (0)
//
SUBSTANCE: AVLHLSDCERNYFTFTVNCG
CLASS: true (1)
//
SUBSTANCE: LTYLWFT
CLASS: false (0)
//
SUBSTANCE: LCARFWDCRFKVQ
CLASS: false (0)
//
SUBSTANCE: NVIYFNVLVAPLHIPMLDLG
CLASS: true (1)
//
SUBSTANCE: GRTLVLDFTHHPPILRVPLR
CLASS: false (0)
//
SUBSTANCE: LKLYINIIVVNYNLLSICSH
CLASS: false (0)
//
SUBSTANCE: WCLGMWLLHVLTTETTFKCT
CLASS: false (0)
//
SUBSTANCE: HIKASDFIW
CLASS: false (0)
//
SUBSTANCE: SFDYRENCPINTVIWLRLCK
CLASS: true (1)
//
SUBSTANCE: SSYNLKYLWGCIC
CLASS: true (1)
//
SUBSTANCE: YPSCAGVWFKHNRLFFV
CLASS: false (0)
//
SUBSTANCE: DYEPLASDAREEDFCNARRG
CLASS: false (0)
//
SUBSTANCE: IYMVGAEPVRERDIVFVPTL
CLASS: true (1)
//
SUBSTANCE: PGSANASLTERFLMKMVGED
CLASS: false (0)
//
SUBSTANCE: KTFTNGLCDPDVYGTIWAM
CLASS: true (1)
//
SUBSTANCE: ESLRDRARWGNCMQILICSL
CLASS: false (0)
//
SUBSTANCE: CDNGPLLIVGVRHRTRACVT
CLASS: true (1)
//
SUBSTANCE: RHMRFPWLKAHVIFIMQWQR
CLASS: true (1)
//
SUBSTANCE: DRGMMCALVFYRHL
CLASS: true (1)
//
SUBSTANCE: LGWRSTFCMKYTSQSLSLPR
CLASS: false (0)
//
SUBSTANCE: VNYSNWFSMADSFRSRSFSV
CLASS: false (0)
//
SUBSTANCE: HFLVMITRL
CLASS: true (1)
//
SUBSTANCE: CYEEPRMPNFFAVFYNSMLE
CLASS: false (0)
//
SUBSTANCE: YKLLYGYWLDWREGRNHKPK
CLASS: true (1)
//
SUBSTANCE: MDSYLSSNCKCDTLDVGGNE
CLASS: false (0)
//
SUBSTANCE: MVGSKSGKDGAQASSRKLAF
CLASS: true (1)
//
SUBSTANCE: FSCCILPCSLSHSMVFLGSG
CLASS: true (1)
//
SUBSTANCE: YWARRYLWAGFFI
CLASS: false (0)
//
SUBSTANCE: LHMLKMICKVVNRVSYS
CLASS: false (0)
//
SUBSTANCE: YINVLVKAHGMMVPRRLKWV
CLASS: false (0)
//
SUBSTANCE: DHVDYSILNYSPMFDCVKFC
CLASS: false (0)
//
SUBSTANCE: GFRLMLFVRTM
CLASS: true (1)
//
SUBSTANCE: KLIYLMGPIPWVLRSCWQVF
CLASS: false (0)
//
SUBSTANCE: FWSWSV
CLASS: false (0)
//
SUBSTANCE: FWLCRYTIGSRLLFVVQTST
CLASS: true (1)
//
SUBSTANCE: HCPKAVGINEWPEMRFYVNL
CLASS: false (0)
//
SUBSTANCE: CEGMVIMVGRVLRTSYLYNL
CLASS: false (0)
//
SUBSTANCE: FVGMSRFFKVH
CLASS: false (0)
//
SUBSTANCE: VVPPRTDSE
CLASS: false (0)
//
SUBSTANCE: GSDCSKAAFDPPFRSYDNAT
CLASS: true (1)
//
SUBSTANCE: VGKITESLLEQLKARHLFCH
CLASS: true (1)
//
SUBSTANCE: SVYWKYLYP
CLASS: true (1)
//
SUBSTANCE: QKGLDVVWYDTRSDMYNKIL
CLASS: false (0)
//
SUBSTANCE: LWLRLRFVCKYRV
CLASS: true (1)
//
SUBSTANCE: KTWLIG
CLASS: false (0)
//
SUBSTANCE: DSYWILSLLWGL
CLASS: false (0)
//
SUBSTANCE: VSFNTFYRRSFPFQLRTTSV
CLASS: false (0)
